Hey, just so you know, these numbers are from patent US10174013B2.

- Tested on: MV4-11 cells
- Test Summary: Growth inhibition, MTS assay, MV4-11
- Assay type: cell-based, Human
- Reported Conditions: 72 hours, MTS cell viability; read-out: MV4-11 ED50
Assay Endpoint: IC50 (nM)

Before answering, review these 4 worked examples.
Compound | Assay Endpoint | Numeric Result
COCCn1c(N2CCNCC2)nc2c([N+](=O)[O-])c(Br)c(Br)cc21 [Example 1BB] | IC50 | 700
N[C@@H]1CCN(c2nc3c([N+](=O)[O-])c(Br)c(Br)cc3n2CC2CC2)C1 [Example 1BG] | IC50 | 1600
CCCn1c(N2CC[C@@H](N)C2)nc2c([N+](=O)[O-])c(Br)c(Br)cc21 [Example 1CM] | IC50 | 800
CC(C)n1c(NC2CCNCC2)nc2c([N+](=O)[O-])c(Br)c(Br)cc21 [Example 1DK] | IC50 | 5500

1. CC(C)n1c(NC2CCNC2)nc2c(C#N)c(Br)c(Br)cc21 (stereo not drawn) [Example 1BK]
2. CCn1c(NC2CCC(N)CC2)nc2c([N+](=O)[O-])c(Br)c(Br)cc21 (stereo not drawn) [Example 1DO]
Request: Pick one: 1 or 2 . Which one has the lower reported IC50? Select an item and report its label.
Response: 1
(1: 800 nM, 2: 4300 nM)

---

- Tgt: Pim-3 (Homo sapiens (Human), UniProt Q86V86)
- Test Summary: ADP-Glo Kinase Assay, Pim-3
- Format: biochemical
- Reported Conditions: 1 μM compound
Assay Endpoint: Pim-3 % INH (1 μM) (%)

Compound | U | Pim-3 % INH (1 μM)
O=[N+]([O-])c1c(Br)c(Br)cc2c1nc(N[C@H]1CCNC1)n2CC1CC1 | % | 75
CC(C)n1c(N2CCNC[C@H]2C)nc2c([N+](=O)[O-])c(Br)c(Br)cc21 [Example 1AX] | % | 95
CCCn1c(N2CCNCC2)nc2c([N+](=O)[O-])c(Br)c(Br)cc21 | % | 73
CCn1c(N2CC[C@@H](N)C2)nc2c([N+](=O)[O-])c(Cl)c(Cl)cc21 | % | 69
CC(C)n1c(N2CCC[C@H](N)C2)nc2c([N+](=O)[O-])c(Br)c(Br)cc21 | % | 93

A. COCCn1c(N2CCNCC2)nc2c([N+](=O)[O-])c(Br)c(Br)cc21
B. O=[N+]([O-])c1c(Br)c(Br)cc2c1nc(N[C@@H]1CCCNC1)n2CC1CC1
Request: Pick one: A or B . Which one has the lower reported Pim-3 % INH (1 μM)? Select an item and report its label.
Response: B
(B: 32%, A: 65%)

---

- Tgt: Pim-3 (Homo sapiens (Human))
- Test Summary: ADP-Glo Kinase Assay, Pim-3
- Type: biochemical
- Reported Conditions: 1 μM compound; read-out: Pim-3 % INH (1 μM)
Assay Endpoint: inhibition at 1 µM (%)

Compound | inhibition at 1 µM (%)
CC(C)n1c(N2CCOCC2)nc2c([N+](=O)[O-])c(Br)c(Br)cc21 [Example 22K] | 85

I. CCn1c(NCC2CCCN2)nc2c([N+](=O)[O-])c(Br)c(Br)cc21 (stereo not drawn) [Example 1AM]
II. CC(C)n1c(N2CCN[C@@H](C)C2)nc2c([N+](=O)[O-])c(Br)c(Br)cc21 [Example 22Z]
Request: Pick one: I or II . Which one has the lower reported inhibition at 1 µM? Select an item and report its label.
Response: I
(I: 53%, II: 85%)
